METHOD_NOTES: DRUGMATRIX: Nicotinic Acetylcholine radioligand binding (ligand: [125I] Epibatidine)
Assay type: cell membranes, Membrane
STUDY_CONDITIONS: imr-32; Not Active = under 50% inhibition at 10 µM
MEASUREMENT_NAME: IC50

{"MOLECULE": "Cc1cc(C2CCCCC2)n(O)c(=O)c1 [CICLOPIROX]", "IC50": "Not Active"}
{"MOLECULE": "CCOc1ccc(NC(C)=O)cc1 [PHENACETIN]", "IC50": "Not Active"}
{"MOLECULE": "CC[C@]1(O)C[C@H]2CN(CCc3c([nH]c4ccccc34)[C@@](C(=O)OC)(c3cc4c(cc3OC)N(C=O)[C@H]3[C@@](O)(C(=O)OC)[C@H](OC(C)=O)[C@]5(CC)C=CCN6CC[C@]43[C@@H]65)C2)C1 [VINCRISTINE]", "IC50": "Not Active"}
{"MOLECULE": "C[C@@H]1CN(c2c(F)c(N)c3c(=O)c(C(=O)O)cn(C4CC4)c3c2F)C[C@H](C)N1 [SPARFLOXACIN]", "IC50": "Not Active"}
{"MOLECULE": "CCCCc1nc(Cl)c(CO)n1Cc1ccc(-c2ccccc2-c2nnn[nH]2)cc1 [LOSARTAN]", "IC50": "Not Active"}
{"MOLECULE": "c1ccc(Nc2ccc(Nc3ccccc3)cc2)cc1", "IC50": "Not Active"}

The measured IC50 associated with NS(=O)(=O)c1cc2c(cc1Cl)NC(C(Cl)Cl)NS2(=O)=O (stereo not drawn) [TRICHLORMETHIAZIDE] reads Not Active

GET /value?item= O=c1[nH]c(=O)n([C@H]2C[C@H](O)[C@@H](CO)O2)cc1I [IDOXURIDINE] &field=IC50 returns Not Active

###

METHOD_NOTES: DRUGMATRIX: Serotonin (5-Hydroxytryptamine) 5-HT3 radioligand binding (ligand: [3H] GR-65630)
Format: cell membranes, Membrane
STUDY_CONDITIONS: hek293; Not Active = under 50% inhibition at 10 µM
MEASUREMENT_NAME: IC50

{"COMPOUND": "CC1CC(OC(=O)C(O)c2ccccc2)CC(C)(C)C1 (stereo not drawn) [CYCLANDELATE]", "TEST_RESULT": "Not Active"}
{"COMPOUND": "Nc1c(Br)cc(Br)cc1CN[C@H]1CC[C@H](O)CC1 [AMBROXOL]", "TEST_RESULT": "Not Active"}
{"COMPOUND": "Cc1c(O)c(=O)ccn1C [DEFERIPRONE]", "TEST_RESULT": "Not Active"}

###

MEASUREMENT_TARGET: Neuropeptide Y receptor type 2 (Homo sapiens); note: in other assays of this panel Not Active means under 50% inhibition at 10 µM
Sequence (P49146 whole entry): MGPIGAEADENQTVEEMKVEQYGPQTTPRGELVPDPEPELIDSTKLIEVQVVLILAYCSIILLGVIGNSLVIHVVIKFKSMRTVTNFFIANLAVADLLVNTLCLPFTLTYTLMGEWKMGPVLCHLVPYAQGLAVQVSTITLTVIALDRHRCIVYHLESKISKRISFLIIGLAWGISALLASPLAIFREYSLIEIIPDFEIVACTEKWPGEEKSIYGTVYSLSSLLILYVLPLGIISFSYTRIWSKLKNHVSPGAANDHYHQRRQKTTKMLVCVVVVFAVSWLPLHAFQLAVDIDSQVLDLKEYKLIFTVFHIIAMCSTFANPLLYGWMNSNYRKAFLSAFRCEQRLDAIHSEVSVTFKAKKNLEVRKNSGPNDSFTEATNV
Assay type: cell membranes, Membrane
STUDY_CONDITIONS: kan-ts

{"SUBSTANCE": "SODIUM NITROPRUSSIDE", "MEASUREMENT_TARGET": "Neuropeptide Y receptor type 2 (Homo sapiens)", "IC50": "Not Active"}
{"SUBSTANCE": "CADMIUM ACETATE", "MEASUREMENT_TARGET": "Neuropeptide Y receptor type 2 (Homo sapiens)", "IC50": "Not Active"}
{"SUBSTANCE": "LEAD (II) ACETATE", "MEASUREMENT_TARGET": "Neuropeptide Y receptor type 2 (Homo sapiens)", "IC50": "Not Active"}
{"SUBSTANCE": "LIPOPOLYSACCHARIDE E. COLI O55:B5", "MEASUREMENT_TARGET": "Neuropeptide Y receptor type 2 (Homo sapiens)", "IC50": "Not Active"}
